- testedTarget: Cbl-b (aa36-427) (Homo sapiens)
- Construct: Cbl-b (aa36-427, in-house); made in house
- Sequence (Q13191 36-427): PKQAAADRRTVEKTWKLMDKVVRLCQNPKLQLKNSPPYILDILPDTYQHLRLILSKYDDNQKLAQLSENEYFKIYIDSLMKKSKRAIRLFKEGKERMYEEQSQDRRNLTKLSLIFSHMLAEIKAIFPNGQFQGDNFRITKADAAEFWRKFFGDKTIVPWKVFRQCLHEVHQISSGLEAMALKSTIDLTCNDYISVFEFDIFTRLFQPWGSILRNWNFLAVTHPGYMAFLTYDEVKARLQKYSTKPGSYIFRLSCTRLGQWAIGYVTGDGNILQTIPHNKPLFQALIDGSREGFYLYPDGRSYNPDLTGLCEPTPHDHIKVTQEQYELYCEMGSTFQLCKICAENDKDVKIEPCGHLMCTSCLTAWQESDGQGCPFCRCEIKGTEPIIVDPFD
- test: Co-expressed Cbl-b with BirA biochemical assay (CBLB/E2-Ub binding, HTRF)
- appliedConditions: 0.6 nM Cbl-b co-expressed with BirA, HTRF; read-out: co-express CBLB/E2-Ub-binding assay IC50
Note to self: use T only for IC50 readings below 0.8 nM; a reading exactly at 0.8 nM still gets F.

A selection of reference data follows.
C[C@@H]1CN(Cc2cc(C(=O)Nc3cccc([C@]4(c5nncn5C)C[C@@H](C)C4)c3)nc3c2NCC32CC2)CC[C@@H]1F
T
Cn1cnnc1[C@]1(c2cccc(NC(=O)c3cc(CNC4(C)CCC4)c4c(n3)C(F)(F)CC4)c2)C[C@H](CC#N)C1
F
Cn1cnnc1[C@]1(c2cccc(NC(=O)c3cc(CNC4(C)CC4)cc4c(F)cnn34)c2)C[C@H](CC#N)C1
T
Cn1cnnc1[C@]1(c2cncc(NC(=O)c3cc(CNC4(C)CCC4)c4[nH]cc(Cl)c4n3)c2)C[C@H](C)C1
F

Q: Is it true that IC50 reported for Cn1cnnc1[C@]1(c2cccc(NC(=O)c3cc(CNCC4CCC(F)(F)CC4)c4[nH]ccc4n3)c2)C[C@H](CC#N)C1 is less than 0.8 nM?
A: F
